assayMethodText: Cytotoxicity against human MRC5 cells assessed as intracellular ATP content after 72 hrs by Cell titer-Glo luminiscent assay
Format: cell-based
endpoint: CC50 at 72 h

// below: answered compounds
Cc1cc(NS(=O)(=O)c2ccc(NC(=O)Cc3ccc(Cl)c(Cl)c3)cc2)no1    > 46 µM
O=C(Cc1ccc(Cl)c(Cl)c1)Nc1ccc(S(=O)(=O)Nc2ccon2)cc1    > 46 µM

Data request, read-out CC50 at 72 h, for "O=C(Cc1ccc(F)c(Cl)c1)Nc1ccc(S(=O)(=O)Nc2nncs2)cc1" > 46 µM

###

Known half-life of a selection of molecules
assayMethodText: Half life in rat liver microsomes
Type: ADME

O=C(Cc1ccc(Cl)c(Cl)c1)Nc1ccc(S(=O)(=O)Nc2ccon2)cc1    > 30 min

Data request, read-out half-life, for "O=C(Cc1ccc(F)c(Cl)c1)Nc1ccc(S(=O)(=O)Nc2nncs2)cc1" > 30 min

Data request, read-out half-life, for "Cc1cc(NS(=O)(=O)c2ccc(NC(=O)Cc3ccc(Cl)c(Cl)c3)cc2)no1" 9.7 min

###

Tested on: Trypanosoma brucei brucei
assayMethodText: Antitrypanosomal activity against Trypanosoma brucei brucei Lister 427 assessed as cell viability after 72 hrs by alamar blue assay
Assay type: functional
studyConditions: Lister 427, 72 h, read-out: ED50 (the source's name)
endpoint: EC50 (µM)
Write the value in µM as a bare number.

O=C(Cc1ccc(Cl)c(Cl)c1)Nc1ccc(S(=O)(=O)Nc2ccon2)cc1    16.3

In the following, a different molecule is considered.
Data request, read-out EC50, for "Cc1cc(NS(=O)(=O)c2ccc(NC(=O)Cc3ccc(Cl)c(Cl)c3)cc2)no1" 26.8

###

assayMethodText: Metabolic stability in mouse plasma assessed as compound remaining after 2 hrs
Format: ADME, cell-free
studyConditions: read-out: Stability
Known remaining at 2 h of a selection of compounds

O=C(Cc1ccc(Cl)c(Cl)c1)Nc1ccc(S(=O)(=O)Nc2ccon2)cc1    > 95%

In the following, a different compound is considered.
Data request, read-out remaining at 2 h, for "O=C(Cc1ccc(F)c(Cl)c1)Nc1ccc(S(=O)(=O)Nc2nncs2)cc1" > 95%

###

testSystem: ATP-dependent 6-phosphofructokinase (Trypanosoma cruzi, UniProt Q4E657)
Sequence (Q4E657 whole entry): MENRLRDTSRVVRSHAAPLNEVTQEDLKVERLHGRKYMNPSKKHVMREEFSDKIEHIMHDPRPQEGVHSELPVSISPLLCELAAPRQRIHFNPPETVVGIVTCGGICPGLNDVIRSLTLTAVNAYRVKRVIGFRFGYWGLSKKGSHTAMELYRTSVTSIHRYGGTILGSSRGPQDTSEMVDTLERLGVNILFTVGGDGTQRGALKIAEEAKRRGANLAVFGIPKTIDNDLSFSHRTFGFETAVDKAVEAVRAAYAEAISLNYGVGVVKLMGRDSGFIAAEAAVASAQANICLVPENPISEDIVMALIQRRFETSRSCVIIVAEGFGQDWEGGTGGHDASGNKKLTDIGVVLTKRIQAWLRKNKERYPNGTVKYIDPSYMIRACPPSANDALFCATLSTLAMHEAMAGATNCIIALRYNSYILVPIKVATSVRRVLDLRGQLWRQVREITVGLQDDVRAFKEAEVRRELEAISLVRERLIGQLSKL
Known IC50 of a selection of compounds
Write the value in nM as a bare number.

// below: answered compounds
O=C(Cc1ccc(F)c(Cl)c1)Nc1ccc(S(=O)(=O)Nc2nncs2)cc1    172
Cc1cc(NS(=O)(=O)Cc2ccc(NC(=O)Cc3ccc(Cl)c(Cl)c3)cc2)no1    3260

In the following, a different compound is considered.
Form entry - test system: ATP-dependent 6-phosphofructokinase (Trypanosoma cruzi, UniProt Q4E657); read-out: IC50; compound: "Cc1cc(NS(=O)(=O)c2ccc(NC(=O)Cc3ccc(Cl)c(Cl)c3)cc2)no1" 230

###

Known solubility kinetic of a selection of compounds
assayMethodText: Aqueous kinetic solubility of the compound
Format: physicochemical
studyConditions: buffer; read-out: Kinetic_solubility

O=C(Cc1ccc(F)c(Cl)c1)Nc1ccc(S(=O)(=O)Nc2nncs2)cc1    > 81 µg/mL
Cc1cc(NS(=O)(=O)c2ccc(NC(=O)Cc3ccc(Cl)c(Cl)c3)cc2)no1    23.3 µg/mL

In the following, a different compound is considered.
Data request, read-out solubility kinetic, for "O=C(Cc1ccc(Cl)c(Cl)c1)Nc1ccc(S(=O)(=O)Nc2ccon2)cc1" > 81 µg/mL
